pEC50 for assorted compounds
# TARGET OF ASSAY: UniProtKB P19793
# PROTOCOL DETAILS: Activation of human RXRalpha activity expressed in COS1 cells after 12 hrs by RXRE-luciferase reporter gene assay
# Assay type: cell-based, COS-1
Lab note: report pEC50 as minus log10 of the concentration in molar units, number only.

NCCCn1c2c(c3ccc(N)cc3c1=O)Cc1ccccc1-2	5.00

Now, please, on to the next compound.
Consider the compound shown here: NCCCn1c2c(c3ccc(N)cc3c1=O)C(=O)c1ccccc1-2 What is its recorded pEC50? 5.36

###

# TARGET OF ASSAY: UniProtKB P19793
# Sequence (whole entry): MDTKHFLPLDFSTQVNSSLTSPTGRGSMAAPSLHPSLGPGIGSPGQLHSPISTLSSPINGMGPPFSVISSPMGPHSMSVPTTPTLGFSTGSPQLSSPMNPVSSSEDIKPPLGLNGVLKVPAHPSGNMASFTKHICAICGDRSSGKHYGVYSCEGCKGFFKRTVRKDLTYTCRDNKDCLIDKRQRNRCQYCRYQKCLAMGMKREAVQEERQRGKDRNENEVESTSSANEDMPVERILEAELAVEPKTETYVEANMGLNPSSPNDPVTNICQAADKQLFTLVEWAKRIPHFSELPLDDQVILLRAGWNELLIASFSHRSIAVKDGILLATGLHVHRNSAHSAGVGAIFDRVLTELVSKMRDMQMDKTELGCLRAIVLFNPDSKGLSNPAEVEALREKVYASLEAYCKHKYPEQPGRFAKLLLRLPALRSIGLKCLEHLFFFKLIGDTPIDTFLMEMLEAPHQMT
# PROTOCOL DETAILS: Activation of human RXRalpha activity expressed in COS1 cells assessed as induction ratio at 50 uM after 12 hrs by RXRE-luciferase reporter gene assay relative to untreated control
# Assay type: cell-based
# MEASUREMENT CONTEXT: COS-1
// reported Ratio for each item listed

Nc1ccc2c3c(n(CCCO)c(=O)c2c1)-c1ccccc1C3O (centres undefined)	< 1
O=C1c2ccccc2-c2c1c1ccc([N+](=O)[O-])cc1c(=O)n2CCCBr	< 1

May I ask what Ratio has been recorded for Cn1c2c(c3ccccc3c1=O)C(=O)c1ccccc1-2 ? < 1

For the compound shown here, NCCCn1c2c(c3ccc(NC(=O)CCCCC(=O)O)cc3c1=O)C(=O)c1ccccc1-2 , give the reported Ratio. < 1

Name the recorded Ratio for CN(C)CCCn1c2c(c3ccc(C#N)cc3c1=O)C(=O)c1ccccc1-2 . > 1

What does the record list as Ratio for Nc1ccc2c3c(n(CCCO)c(=O)c2c1)-c1ccccc1C3=O ? < 1

What does the data say about its Ratio? Entry: COC(=O)CCCC(=O)Nc1ccc2c3c(n(CCCN)c(=O)c2c1)-c1ccccc1C3=O < 1

What does the data say about its Ratio? Entry: NCCCn1c2c(c3ccc(NCC(=O)O)cc3c1=O)C(=O)c1ccccc1-2 > 1

Can you share its Ratio? I mean this compound: NCCCn1c2c(c3ccc(NC(=O)CC(=O)O)cc3c1=O)C(=O)c1ccccc1-2 < 1
